# System: Blood
# ASSAY EXPLANATION: Inhibition of […]-induced LTB4 synthesis in human whole blood after 15 mins
# Assay type: functional, tissue-based
# RECORDED CONDITIONS: 0.25 h
READOUT KIND: IC50 (µM)
Number only, in µM; omit the unit.

Query string: Give the reported value of IC50 for this record: COc1cnc(-c2ccc(Cn3c(CC(C)(C)C(=O)[O-])c(SC(C)(C)C)c4cc(OCc5ccc(C)cn5)ccc43)cc2)nc1.[Na+]
Result string: 0.161

====

# ASSAY EXPLANATION: Terminal half life in rat at 1 mg/kg, iv
# Format: ADME, organism-based
# Parameters: dose 1 mg/kg, route intravenous
# RECORDED CONDITIONS: in vivo, read-out: beta t1/2 (converted)
READOUT KIND: half-life (h)
Number only, in h; omit the unit.

Query string: Give the reported value of half-life for this record: COc1cnc(-c2ccc(Cn3c(CC(C)(C)C(=O)[O-])c(SC(C)(C)C)c4cc(OCc5ccc(C)cn5)ccc43)cc2)nc1.[Na+]
Result string: 2

====

# ASSAY EXPLANATION: Drug level in mouse plasma at 30 mg/kg, po after 4.5 hrs
# RECORDED CONDITIONS: read-out: Drug uptake
READOUT KIND: concentration at 4.5 h (nM)
Number only, in nM; omit the unit.

Query string: Give the reported value of concentration at 4.5 h for this record: COc1cnc(-c2ccc(Cn3c(CC(C)(C)C(=O)[O-])c(SC(C)(C)C)c4cc(OCc5ccc(C)cn5)ccc43)cc2)nc1.[Na+]
Result string: 1500
